Assay: in vivo
Settings: Artemia salina (brine shrimp), in vivo, other: exposure in seawater in microplate wells
Procedure: Brine shrimp eggs (Artemia salina) were obtained from Brine Shrimp Direct, Ogden, Utah and stored at 10° C. until used. Eggs (400 mg) were added to 1 l of deionized water containing 40 g of sea salts (Sigma Chemical Co., St. Louis, Mo.). Serial dilutions were performed in 100 μl of seawater in triplicate in the wells of a 96-well microplate to give appropriate concentrations. […] The number of non-motile, and the total number of, naupli were counted in each well using a binocular microscope (10×).
MEASURED ATTRIBUTE: LC50 at 24 h (µg/mL)
Please give a number only; it is taken to be in µg/mL.

Worked examples follow.
CCCCCCCCCCCCNC(=S)NCc1cccc(OC)c1; 3.8
COc1ccc(C(=O)NC(=S)NCc2cccc(OC)c2)cc1; 58
CCCCCCCCNC(=S)NCc1cccc(OC)c1; 240
COc1cccc(CNC(=S)NCc2ccccc2)c1; 31.6
O=C1O[C@H]([C@@H](O)CO)C(O)=C1O [ascorbic acid, reference compound]; 315

Moving on to another compound below.
Incoming: Looking for the measured LC50 at 24 h of `CCCCCCCCCCCCCCCCCCNC(=S)NCc1cccc(OC)c1` , can you help?
Outgoing: 62.5
